# IC50 per entry
Test system: 128128-338-R-J1-PDC spheroids, viability % test/control;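 note: spheroids exposed to compounds for 7 days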
method_notes: Anticancer human tumor 128128-338-R-J1-PDC patient-derived melanoma cell line growth inhibition [TAK]
experimental_setup: curve of first compound; second compound 3 µM; spheroids with HUVEC and MSC
Return type: number; implicit unit nM.

Examples with answers:
{"compound": "COC1CC2CCC(C)C(O)(O2)C(=O)C(=O)N2CCCCC2C(=O)OC(C(C)CC2CCC(OCCO)C(OC)C2)CC(=O)C(C)C=C(C)C(O)C(OC)C(=O)C(C)CC(C)C=CC=CC=C1C (stereo not given) + CC(C)NCC(C(=O)N1CCN(c2ncnc3c2C(C)CC3O)CC1)c1ccc(Cl)cc1", "unit_spec": "nM", "IC50": 7.41}
{"compound": "CC(C)CC(NC(=O)C(Cc1ccccc1)NC(=O)c1cnccn1)B(O)O (stereo not given) + CC(C)NCC(C(=O)N1CCN(c2ncnc3c2C(C)CC3O)CC1)c1ccc(Cl)cc1", "unit_spec": "nM", "IC50": 1.64}
{"compound": "Cn1cnc2c(F)c(Nc3ccc(Br)cc3Cl)c(C(=O)NOCCO)cc21 + CC(C)NCC(C(=O)N1CCN(c2ncnc3c2C(C)CC3O)CC1)c1ccc(Cl)cc1", "unit_spec": "nM", "IC50": 54.8}
{"compound": "CC(C)n1nc(-c2ccc3oc(N)nc3c2)c2c(N)ncnc21 + CC(C)NCC(C(=O)N1CCN(c2ncnc3c2C(C)CC3O)CC1)c1ccc(Cl)cc1", "unit_spec": "nM", "IC50": 7.82}

Enquiry: What IC50 value was documented for this compound, CCCS(=O)(=O)Nc1ccc(F)c(C(=O)c2c[nH]c3ncc(-c4ccc(Cl)cc4)cc23)c1F + CC(C)NCC(C(=O)N1CCN(c2ncnc3c2C(C)CC3O)CC1)c1ccc(Cl)cc1 ?
Return: 462

Enquiry: Input COc1c(OCCCN2CCOCC2)ccc2c3n(c(=NC(=O)c4cnc(N)nc4)nc12)CCN3 + CC(C)NCC(C(=O)N1CCN(c2ncnc3c2C(C)CC3O)CC1)c1ccc(Cl)cc1
Return: 92.5

Enquiry: Input CC(C)CC(NC(=O)CNC(=O)c1cc(Cl)ccc1Cl)B1OC(=O)CC(CC(=O)O)(C(=O)O)O1 (stereo not given) + CC(C)NCC(C(=O)N1CCN(c2ncnc3c2C(C)CC3O)CC1)c1ccc(Cl)cc1
Return: 5.61

Enquiry: Input CC(=O)Nc1cccc(-n2c(=O)n(C3CC3)c(=O)c3c(Nc4ccc(I)cc4F)n(C)c(=O)c(C)c32)c1 + CC(C)NCC(C(=O)N1CCN(c2ncnc3c2C(C)CC3O)CC1)c1ccc(Cl)cc1
Return: 1.25
